Tested on: KRAS PDC multicell spheroid viability
Experiment: Anticancer human tumor 521955-158-R6-J3-PDC patient-derived pancreatic carcinoma cell line growth inhibition [KRAS2]
Conditions: second compound 1 µM; first compound 1 µM; stronger effect = lower value
From the text: Multicellular complex tumor spheroid response to RAS pathway inhibitors in combination with a targeted agents in patient-derived cell lines with oncogenic KRAS variants from multiple cancer types A high-throughput screen of multi-cell type tumor spheroids was designed to identify active combinations of targeted small molecules and KRAS pathway inhibitors. […] Compounds. […] If the clinical Cmax for an agent had not been determined, the highest concentration tested was 10 microM. […]
Measured attribute: viability, T/C (%)
Unit % implied. Number only.

Noted for CCNC(=O)CC1N=C(c2ccc(Cl)cc2)c2cc(OC)ccc2-n2c(C)nnc21 (configuration not stated) + C=CC(=O)N1CCN(c2nc(OCC3CCCN3C)nc3c2CCN(c2cccc4cccc(C)c24)C3)CC1CC#N : its viability, T/C reads 62.2

Noted for CCN1CCN(Cc2ccc(Nc3ncc(F)c(-c4cc(F)c5nc(C)n(C(C)C)c5c4)n3)nc2)CC1 + C=CC(=O)N1CCN(c2nc(OCC3CCCN3C)nc3c2CCN(c2cccc4cccc(C)c24)C3)CC1CC#N : its viability, T/C reads 103

Noted for Cn1nccc1Nc1nccc(-c2cc3c(s2)C(C)(C)N(CCN2CCOCC2)C3=O)n1 + COc1cc2nc(C)nc(NC(C)c3cc(N)cc(C(F)(F)F)c3)c2cc1OC1CCOC1 : its viability, T/C reads 82.2

Noted for CC1COCCN1c1cc(-c2ccnn2C)c2ccnc(-c3ccn[nH]3)c2n1 (configuration not stated) + CC1OCC2(CCN(c3cnc(Sc4ccnc(N)c4Cl)c(N)n3)CC2)C1N : its viability, T/C reads 68.3

Noted for CCN1CCN(Cc2ccc(Nc3ncc(F)c(-c4cc(F)c5nc(C)n(C(C)C)c5c4)n3)nc2)CC1 + CC1OCC2(CCN(c3cnc(Sc4ccnc(N)c4Cl)c(N)n3)CC2)C1N : its viability, T/C reads 90.1

Noted for CCN1CCN(Cc2ccc(Nc3ncc(F)c(-c4cc(F)c5nc(C)n(C(C)C)c5c4)n3)nc2)CC1 + CNCc1ccccc1-c1csc(C(C)Nc2nc(C)nc3cc(OC)c(OC)cc23)c1 : its viability, T/C reads 30.8

Noted for COc1cc2nccc(Oc3ccc(NC(=O)C4(C(=O)Nc5ccc(F)cc5)CC4)cc3)c2cc1OC + CNCc1ccccc1-c1csc(C(C)Nc2nc(C)nc3cc(OC)c(OC)cc23)c1 : its viability, T/C reads 83.9

====

tested on: KRAS PDC multicell spheroid viability; experiment: Anticancer human tumor 521955-158-R6-J3-PDC cell line growth inhibition [KRAS2]; conditions: second compound 3.16 µM; first compound 0.1 µM; stronger effect = lower value;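 further: drug exposure lasted seven days; 100% = DMSO vehicle wells and lower means fewer viable cells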
Could you please report measured viability, T/C for the items listed next?
Unit % implied. Number only.

Noted for O=C(c1cc(Cc2n[nH]c(=O)c3ccccc23)ccc1F)N1CCN(C(=O)C2CC2)CC1 + CC1OCC2(CCN(c3cnc(Sc4ccnc(N)c4Cl)c(N)n3)CC2)C1N : its viability, T/C reads 98.6

Noted for CC(C)n1nc(-c2ccc3oc(N)nc3c2)c2c(N)ncnc21 + C=CC(=O)N1CCN(c2nc(OCC3CCCN3C)nc3c2CCN(c2cccc4cccc(C)c24)C3)CC1CC#N : its viability, T/C reads 21.8

Noted for Cn1ncnc1[C@H]1c2n[nH]c(=O)c3cc(F)cc(c23)N[C@@H]1c1ccc(F)cc1 + C=CC(=O)N1CCN(c2nc(=O)n(-c3c(C)ccnc3C(C)C)c3nc(-c4c(O)cccc4F)c(F)cc23)C(C)C1 : its viability, T/C reads 96.4
